# studyTarget: Dbp2 1-514 (Saccharomyces cerevisiae, UniProt P24783 1-514)
# Sequence (P24783 1-514): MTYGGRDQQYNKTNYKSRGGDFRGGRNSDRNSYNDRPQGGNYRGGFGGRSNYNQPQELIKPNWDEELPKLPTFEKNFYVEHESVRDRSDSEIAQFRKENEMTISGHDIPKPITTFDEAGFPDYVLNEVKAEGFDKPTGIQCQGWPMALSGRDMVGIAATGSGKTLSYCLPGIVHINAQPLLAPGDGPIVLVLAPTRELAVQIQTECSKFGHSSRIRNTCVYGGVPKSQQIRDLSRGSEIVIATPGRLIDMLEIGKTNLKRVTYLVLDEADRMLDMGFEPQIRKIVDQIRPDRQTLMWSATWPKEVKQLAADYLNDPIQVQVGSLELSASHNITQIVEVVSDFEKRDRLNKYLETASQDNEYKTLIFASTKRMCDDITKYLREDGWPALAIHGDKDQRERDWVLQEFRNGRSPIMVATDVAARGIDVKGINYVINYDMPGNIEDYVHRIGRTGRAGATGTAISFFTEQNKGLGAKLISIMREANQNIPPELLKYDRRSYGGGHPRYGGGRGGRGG
# experimentalProtocol: fluorescence anisotropy; Anisotropy: 25 mM Tris-HCl pH 7.5, 20 mM NaCl/30 mM KCl, 2 mM MgCl2, 1 mM DTT, 5 nM labelled nucleic acid, 25 C, 5 min; EMSA: 25 mM Tris-HCl pH 7.5, 30 mM KCl
# cond: protein: recombinant; tags: His6-MBP removed by TEV; label: 3' FAM
endpoint: Kd (nM)
The reply should be a number in nM, with the unit left off.

Qu. Fill in: Kd of UUUUUUUUUUCUCUGCUCGACG (ssRNA) [R-S22] is ___
Ans. 214
